- experiment: RPL19A-GFP modulators, yeast TOR pathway, confirmation, cell-based, S. cerevisiae, flow cytometry, cherry picks, mother/daughter gates (AID 2270)
- runParameters: S. cerevisiae RPL19A-GFP strain, 3 h, at 10 µM, active compounds read low, 100 = same GFP as DMSO wells
Some compounds, each annotated with its measured GFP response vs DMSO.
Your answer should be a plain number; it is taken to be in %.

Example cases with answers are listed next.
Give the measured GFP response vs DMSO of COc1ccc(N2CCN(C(=O)c3ccccc3)CC2)c([N+](=O)[O-])c1 .
101

Entry under review: N#CC(C(=O)NCc1ccccc1)c1nc2ccccc2nc1N1CCCC1 (configuration not stated) . Reported GFP response vs DMSO?
103

Entry COc1ccc(N2C(=O)c3cccc4cccc(c34)C2=O)nn1 has what GFP response vs DMSO?
98

Fill in: GFP response vs DMSO of O=C1C2C3C=CC(C4CC34)C2C(=O)N1/N=C/c1ccc([N+](=O)[O-])o1 (configuration not stated) is ___
101

Name the recorded GFP response vs DMSO for CCOC(=O)C1=C(Cc2ccc(Cl)cc2)C(=O)c2ccccc2C1=O .
99.1

Consider the compound shown here: Cc1cc(NCCN2CCOCC2)n2nc(C)c(-c3ccccc3)c2n1 What is its recorded GFP response vs DMSO?
98.8

Could you share which GFP response vs DMSO value was measured for NC(=O)c1ccccc1OCC(=O)c1ccc(Cl)cc1 ?
100

Give its GFP response vs DMSO value. Item: O=C1C=C(c2ccc(Cl)cc2)C(=O)N1Nc1ccccc1
61.9

Further cases:
Value lookup for GFP response vs DMSO; key = COc1ccccc1NC1=C(Cl)C(=O)N(c2ccccc2)C1=O
103

Consider the compound COc1ccccc1CN1C(=O)c2cccc3cccc(c23)C1=O and give its measured GFP response vs DMSO.
100

Would you kindly share the measured GFP response vs DMSO for Cc1cccc(NC(c2ccc(C)s2)c2ccc3ccc(C)nc3c2O)n1 (configuration not stated) ?
108

----------
- experiment: inhibitors of fungal efflux pumps CDR1, CDR2, MDR1, pilot screen, validation compound set, multiplex, phenotypic (AID 588506);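 note: Nile Red retained in cells so higher fluorescence means more efflux inhibition; 0 = negative control wells and 1 = enniatin B 25 µM full block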
- runParameters: S. cerevisiae pump-expressing triplex, Nile Red efflux flow cytometry; at 10 µM; active compounds read high; the pumps come from Candida albicans
Please use t for efflux inhibition (fraction of control) under 0.03 and f for everything else, ties included.

Is the reported efflux inhibition (fraction of control) for COc1ccc(C(=O)/C=C/c2cc(C(=O)O)cc3c2OCOC3)c(O)c1 strictly below 0.03?
t

Determine whether this molecule shows efflux inhibition (fraction of control) lower than 0.03 (ties excluded): CCc1cc(=O)oc2cc(C)c(CN3CCCC(C)C3)c(O)c12 (centres undefined)
f

Dear reviewer, please state whether O=[N+]([O-])c1ccc2cn[nH]c2c1 has efflux inhibition (fraction of control) strictly beneath 0.03.
t

Quick check: does COc1cccc(N2C(=O)[C@H]3C(C(=O)c4cnccn4)=NN[C@H]3C2=O)c1 have efflux inhibition (fraction of control) under 0.03?
t

Please state whether efflux inhibition (fraction of control) is below 0.03 for COc1ccc(Cc2nc(-c3ccc(Br)cc3)no2)cc1
f

Would you kindly verify if efflux inhibition (fraction of control) of O=C1OC(c2ccc(O)cc2)(c2ccc(O)cc2)c2ccccc21 is strictly less than 0.03?
t

Just wondering, is efflux inhibition (fraction of control) of Cn1cnc2c1c(=O)n(CC(O)CO)c(=O)n2C (centres undefined) below 0.03?
t

Please check: efflux inhibition (fraction of control) for CCn1cc(C(=O)O)c(=O)c2cnc(N3CCNCC3)nc21 , strictly under 0.03 or not?
t

Consider the molecule O=C(OCCN1CCCC1)C1(c2ccccc2)CCCC1 . Is its efflux inhibition (fraction of control) strictly less than 0.03?
t

Is efflux inhibition (fraction of control) strictly under 0.03 for the entry C#CCN(C)CCCOc1ccc(Cl)cc1Cl ?
f

More entries:
# check: efflux inhibition (fraction of control) < 0.03 for CCc1cc2c3c(c(=O)oc2cc1O)CCCC3
t

Is it true that efflux inhibition (fraction of control) reported for COCCCC/C(=N\OCCN)c1ccc(C(F)(F)F)cc1 is less than 0.03?
f

Does this molecule meet the criterion efflux inhibition (fraction of control) < 0.03? OCCN1CCN(CCCN2c3ccccc3Sc3ccc(Cl)cc32)CC1
f

Does the reported efflux inhibition (fraction of control) of the following molecule sit strictly below 0.03? CNc1nc(N(C)C)nc(N(C)C)n1
f

Is efflux inhibition (fraction of control) strictly under 0.03 for the entry CCN1C(=O)C(CC(=O)Nc2ccc(F)cc2)N(Cc2ccc3c(c2)OCO3)C1=S (centres undefined) ?
f

Is it true that efflux inhibition (fraction of control) reported for COc1ccccc1C(CC(=O)Nc1ccccc1C)c1ccc(OC(C)C)cc1 (centres undefined) is less than 0.03?
f

Answer whether the molecule CCN(Cc1cnn(C)c1)Cc1nc(C(c2ccccc2)c2ccccc2)no1 has efflux inhibition (fraction of control) strictly less than 0.03
t

efflux inhibition (fraction of control) strictly < 0.03 for this molecule? COc1cc(C2CC(=O)NC3=C2C(=O)CC(C)(C)C3)ccc1O (centres undefined)
t

Given O=C(NCCc1cccc(F)c1)[C@@H]1CSC2c3ccccc3C(=O)N21 (some centres undefined) , is recorded efflux inhibition (fraction of control) strictly lower than 0.03?
f

Decide: efflux inhibition (fraction of control) of COC(=O)C1=C(C)NC(C)=C(C(=O)OC)C1c1ccccc1[N+](=O)[O-] strictly below 0.03?
t

API: query returns whether the molecule falls strictly under 0.03 in efflux inhibition (fraction of control). Query: CC1=CC2(O)OCCN(CCO)C2=CC1=O (centres undefined)
f

----------
GFP response relative to DMSO values, listed per item
- experiment: LAP4-GFP expression modulators in yeast, confirmation, cell-based, cherry picks, flow cytometry, mother/daughter gates (AID 2271);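 note: ratio of sample to DMSO plate mean so 100% equals DMSO level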
- runParameters: S. cerevisiae LAP4-GFP strain, 3 h, at 10 µM, active compounds read high, 100 means same as DMSO control
# value in %; strip the unit string

So what does the record say about GFP response relative to DMSO for O=C(/C=C/c1c(F)cccc1Cl)c1ccc(F)cc1 ?
118

Would you kindly share the measured GFP response relative to DMSO for Cc1cc(Br)c2c(c1)/C(=C/C(=O)c1cccs1)C(=O)N2 ?
115

Using the record for CC(C)c1nnc(NC(=O)c2nc(S(=O)(=O)Cc3ccccc3)ncc2Cl)s1 , report its GFP response relative to DMSO.
102

For O=C(Cc1ccc(Cl)cc1)Nc1ccc(Br)cn1 , what is its reported GFP response relative to DMSO?
108

// query GFP response relative to DMSO value for entry Cc1cccc(N2C(=O)c3cccc4c(N(C)CCO)ccc(c34)C2=O)c1
110

Which GFP response relative to DMSO reading was recorded for the compound CCn1c(=O)c(C(=O)NCCCO)c(O)c2ccccc21 ?
111

Which GFP response relative to DMSO is reported for this compound? N#Cc1ccc(Sc2ccccn2)c([N+](=O)[O-])c1
102

Which GFP response relative to DMSO reading was recorded for the compound COC(=O)CNc1c(-c2ccccn2)nc2ccc(Br)cn12 ?
96.7

Entry COc1ccc(C2c3c(oc4ccccc4c3=O)C(=O)N2CCN2CCOCC2)cc1OC (stereo not drawn) has what GFP response relative to DMSO?
119

Please look up its GFP response relative to DMSO: CCOc1ccccc1C1N=C(c2ccc(OC)cc2)CC(c2ccccc2O)N1 (stereo not drawn)
106

***
Given Cc1ccc(N2C(=O)C(Cl)=C(Nc3c(C)n(C)n(-c4ccccc4)c3=O)C2=O)cc1 , state its recorded GFP response relative to DMSO.
101

Given the entry COc1cc(C(=O)ON=C2C3CC4CC(C3)CC2C4)cc(OC)c1OC , report its measured GFP response relative to DMSO.
108

Please give the measured GFP response relative to DMSO for this compound: CN(C)CCCNc1cc(C(C)(C)C)nc2c(-c3ccc(Cl)cc3)cnn12
116

I am curious: what GFP response relative to DMSO value has been reported for O=C(N/N=C/c1ccccn1)c1sc2ccccc2c1Cl ?
118

For the compound Cc1cc(C)c(C(=O)COC(=O)c2ccc([N+](=O)[O-])o2)cc1C , what GFP response relative to DMSO is on record?
102

Query: GFP response relative to DMSO; subject: CCOc1ccc2nc(SCC(=O)NCC3CCCO3)c(C#N)cc2c1 (stereo not drawn)
99.8

----------
- assayedSystem: ATP-binding cassette sub-family B member 6 (Homo sapiens)
- experiment: ABCB6 transporter inhibitors, pilot screen, K562-ABCB6 cells, flow cytometry, validation set (AID 588550);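 note: 0% = DMSO wells and 100% = benzethonium chloride 70 µM positive control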
- runParameters: K562-ABCB6 porphyrin accumulation, 1 h, at 10 µM, active compounds read high
endpointLabel: inhibition (%)
# number only, unit % dropped from output

Endpoint output: inhibition of CC(C)c1ccc2[nH]c3c(c2c1)CCCC3=O . Value?
27

Need inhibition of CC(=O)N1CC23C=CC(CC2CC12CCCCCC2)O3 (stereo unspecified) , thanks.
0

Which measured inhibition value corresponds to Oc1ccc(COCc2ccccc2)c2cccnc12 ?
1

Fill blank: measured inhibition of the molecule O=C(c1ccc([N+](=O)[O-])cc1)N1CCSC1c1ccccc1Cl (stereo unspecified) is ____.
5

Could you share which inhibition value was measured for CCc1ccc(/C=C2\SC(=S)N(CCC(=O)N3CCN(C)CC3)C2=O)cc1 ?
2

API: the following record is the query input.
Name the recorded inhibition for CCN(Cc1cnn(C)c1)Cc1nc(C(c2ccccc2)c2ccccc2)no1 .
1
